assay: reversal of MRP1-mediated doxorubicin resistance, pilot screen, H69AR cells, doxorubicin co-treatment (AID 601); conditions: H69AR cells + 2 uM doxorubicin, CellTiter-Glo, 72 h; measured here: viability with 2 uM doxorubicin; at 10 µM; stronger effect = lower value
Mark fulfilled only for viability values smaller than 90%; exact matches and larger values are not fulfilled.

## Input Does the reported viability of the following compound sit strictly below 90%? CCOC(=O)c1sc(NC(=O)c2c(C)nn(Cc3ccccc3)c2C)cc1C
## Output fulfilled

## Input Does the reported viability of the following compound sit strictly below 90%? Cc1ccc2nc(-c3ccc4c(c3)OCCO4)cc(C(=O)O)c2c1
## Output not fulfilled

## Input Does the reported viability of the following compound sit strictly below 90%? COc1ccc(CN(CC(=O)NCC2CCCO2)C(=O)CCC(=O)Nc2cc(C)on2)cc1 (stereo unspecified)
## Output not fulfilled

## Input Does the reported viability of the following compound sit strictly below 90%? O=C(O)CSc1ncn[nH]1
## Output not fulfilled

## Input Does the reported viability of the following compound sit strictly below 90%? O=C(NCCN1CCOCC1)NC1(C(F)(F)F)Oc2ccc(Cl)cc2O1 (stereo unspecified)
## Output fulfilled

## Input Does the reported viability of the following compound sit strictly below 90%? CCc1ccccc1NC(=O)CSC1=C(C#N)C(c2ccc(O)c(OC)c2)C2=C(CCCC2=O)N1 (stereo unspecified)
## Output fulfilled

## Input Does the reported viability of the following compound sit strictly below 90%? COc1ccc(CNCC(=O)Nc2cc(C)nn2-c2nc(C)cc(C)n2)cc1OC
## Output fulfilled
